meta.source: the supplement of paper PMC10307832

- Tested on: NCI-H1915
- Protocol Notes: relative viability (nuclei count vs DMSO), 5 days (fraction); higher = more cells survive
- Particulars: first compound 0.002 µM
Reported Endpoint: relative viability
Number only, please.

INSERT INTO measurements (compound, reported_endpoint, reported_value) VALUES
  ('CCNC(=O)c1noc(-c2cc(C(C)C)c(O)cc2O)c1-c1ccc(CN2CCOCC2)cc1 [Luminespib] + C[C@@H](Oc1cc(-c2cnn(C3CCNCC3)c2)cnc1N)c1c(Cl)ccc(F)c1Cl [Crizotinib] (partner 1 µM)', 'relative viability', 0.952);

Please find the next compound below.
Return the recorded relative viability value; entry: CCNC(=O)c1noc(-c2cc(C(C)C)c(O)cc2O)c1-c1ccc(CN2CCOCC2)cc1 [Luminespib] + CS(=O)(=O)CCNCc1ccc(-c2ccc3ncnc(Nc4ccc(OCc5cccc(F)c5)c(Cl)c4)c3c2)o1 [Lapatinib] (partner 2 µM)
0.943

----------
- Tested on: H3255
- Protocol Notes: relative viability (nuclei count vs DMSO), 5 days (fraction); higher = more cells survive
- Particulars: first compound 2.53 µM
Reported Endpoint: relative viability
// print number alone

INSERT INTO assay_data (compound, reported_value) VALUES
  ('Nc1cccc2c1CN(C1CCC(=O)NC1=O)C2=O (stereo not given) [Lenalidomide] + Cc1cc(Nc2cc(N3CCN(C)CC3)nc(Sc3ccc(NC(=O)C4CC4)cc3)n2)n[nH]1 [Tozasertib] (partner 0.1 µM)', 0.662);

Return value of relative viability for input Nc1cccc2c1CN(C1CCC(=O)NC1=O)C2=O (stereo not given) [Lenalidomide] + CC1(C)CCC(c2ccc(Cl)cc2)=C(CN2CCN(c3ccc(C(=O)NS(=O)(=O)c4ccc(N[C@H](CCN5CCOCC5)CSc5ccccc5)c(S(=O)(=O)C(F)(F)F)c4)cc3)CC2)C1 [Navitoclax] (partner 0.5 µM) , no commentary.
0.589

Give relative viability for the following compound: Nc1cccc2c1CN(C1CCC(=O)NC1=O)C2=O (stereo not given) [Lenalidomide] + Cc1nc(NC(=O)N2CCC[C@H]2C(N)=O)sc1-c1ccnc(C(C)(C)C(F)(F)F)c1 [Alpelisib] (partner 2 µM)
0.916

Return reported relative viability. Input compound: Nc1cccc2c1CN(C1CCC(=O)NC1=O)C2=O (stereo not given) [Lenalidomide] + Cc1nc(Nc2ncc(C(=O)Nc3c(C)cccc3Cl)s2)cc(N2CCN(CCO)CC2)n1 [Dasatinib] (partner 0.075 µM)
0.34

Specify measured relative viability for Nc1cccc2c1CN(C1CCC(=O)NC1=O)C2=O (stereo not given) [Lenalidomide] + CS(=O)(=O)CCNCc1ccc(-c2ccc3ncnc(Nc4ccc(OCc5cccc(F)c5)c(Cl)c4)c3c2)o1 [Lapatinib] (partner 2 µM) .
0.317

----------
Below is a list of entries, each paired with its recorded relative viability value.
- Tested on: 201T
- Protocol Notes: relative viability (nuclei count vs DMSO), 5 days (fraction); higher = more cells survive
- Particulars: first compound 20 µM

INSERT INTO assay_data (compound, reported_value) VALUES
  ('Cc1csc(=NC2CCCCC2)n1/N=C/c1ccc(O)c(O)c1O [MIM1] + C[C@@H](Oc1cc(-c2cnn(C3CCNCC3)c2)cnc1N)c1c(Cl)ccc(F)c1Cl [Crizotinib] (partner 1 µM)', 0.823),
  ('Cc1csc(=NC2CCCCC2)n1/N=C/c1ccc(O)c(O)c1O [MIM1] + Nc1nc2[nH]cc(CCc3ccc(C(=O)N[C@@H](CCC(=O)O)C(=O)O)cc3)c2c(=O)[nH]1 [Pemetrexed] (partner 0.2 µM)', 0.318);

Now for another entry.
Specify measured relative viability for Cc1csc(=NC2CCCCC2)n1/N=C/c1ccc(O)c(O)c1O [MIM1] + C[C@]1(O)C[C@@H](c2nc(-c3ccc4ccc(-c5ccccc5)nc4c3)c3c(N)nccn32)C1 [Linsitinib] (partner 1 µM) .
1.25

----------
- Test system: NCI-H1650
- Protocol Notes: relative viability (nuclei count vs DMSO), 5 days (fraction); higher = more cells survive
- Particulars: first compound 0.2 µM
// reported relative viability for each item listed
Output: the number by itself.

Completed entries (count: 3):
INSERT INTO assay_data (compound, reported_endpoint, reported_value) VALUES
  ('Cc1csc(=NC2CCCCC2)n1/N=C/c1ccc(O)c(O)c1O [MIM1] + CS(=O)(=O)CCNCc1ccc(-c2ccc3ncnc(Nc4ccc(OCc5cccc(F)c5)c(Cl)c4)c3c2)o1 [Lapatinib] (partner 2 µM)', 'relative viability', 0.788),
  ('CN1CCN(CCOc2cc(OC3CCOCC3)c3c(Nc4c(Cl)ccc5c4OCO5)ncnc3c2)CC1 [Saracatinib] + C[C@@H](Oc1cc(-c2cnn(C3CCNCC3)c2)cnc1N)c1c(Cl)ccc(F)c1Cl [Crizotinib] (partner 1 µM)', 'relative viability', 0.637),
  ('CN1CCN(CCOc2cc(OC3CCOCC3)c3c(Nc4c(Cl)ccc5c4OCO5)ncnc3c2)CC1 [Saracatinib] + N=C(N)NC(=N)NCCc1ccccc1 [Phenformin] (partner 250 µM)', 'relative viability', 0.253);

Moving on to another compound below.
Return value of relative viability for input CN1CCN(CCOc2cc(OC3CCOCC3)c3c(Nc4c(Cl)ccc5c4OCO5)ncnc3c2)CC1 [Saracatinib] + CCNC(=O)c1noc(-c2cc(C(C)C)c(O)cc2O)c1-c1ccc(CN2CCOCC2)cc1 [Luminespib] (partner 0.01 µM) , no commentary.
0.187

----------
- System: NCI-H1993
- Protocol Notes: relative viability (nuclei count vs DMSO), 5 days (fraction); higher = more cells survive
- Particulars: first compound 0.003162 µM
Friendly reminder: relative viability below 0.7 is rule met, at or above is rule not met.

INSERT INTO assay_data (compound, category_label) VALUES
  ('Cc1cn(-c2cc(NC(=O)c3ccc(C)c(Nc4nccc(-c5cccnc5)n4)c3)cc(C(F)(F)F)c2)cn1 [Nilotinib] + O=C(CCCCCCC(=O)Nc1ccccc1)NO [Vorinostat] (partner 1 µM)', 'rule met'),
  ('Cc1cn(-c2cc(NC(=O)c3ccc(C)c(Nc4nccc(-c5cccnc5)n4)c3)cc(C(F)(F)F)c2)cn1 [Nilotinib] + CC(C)C[C@H](NC(=O)[C@H](Cc1ccccc1)NC(=O)c1cnccn1)B(O)O [Bortezomib] (partner 0.002 µM)', 'rule not met'),
  ('Cc1cn(-c2cc(NC(=O)c3ccc(C)c(Nc4nccc(-c5cccnc5)n4)c3)cc(C(F)(F)F)c2)cn1 [Nilotinib] + COc1cccc2cc(-c3nc([C@H]4CC[C@H](C(=O)O)CC4)n4ncnc(N)c34)[nH]c12 [OSI-027] (partner 0.5 µM)', 'rule met');

Let's switch to this compound now.
In the record for Cc1cn(-c2cc(NC(=O)c3ccc(C)c(Nc4nccc(-c5cccnc5)n4)c3)cc(C(F)(F)F)c2)cn1 [Nilotinib] + Cc1nc(Nc2ncc(C(=O)Nc3c(C)cccc3Cl)s2)cc(N2CCN(CCO)CC2)n1 [Dasatinib] (partner 0.075 µM) , is relative viability less than 0.7?
rule met

----------
- Test system: LK-2
- Protocol Notes: relative viability (nuclei count vs DMSO), 5 days (fraction); higher = more cells survive
- Particulars: first compound 0.001 µM
Reported Endpoint: relative viability
Just the number, please, no unit attached.

INSERT INTO assay_data (molecule, reported_value) VALUES
  ('Cc1cn(-c2cc(NC(=O)c3ccc(C)c(Nc4nccc(-c5cccnc5)n4)c3)cc(C(F)(F)F)c2)cn1 [Nilotinib] + O=C(CCCCCCC(=O)Nc1ccccc1)NO [Vorinostat] (partner 1 µM)', 0.261);

Kindly consider the entry below.
Look up relative viability of Cc1cn(-c2cc(NC(=O)c3ccc(C)c(Nc4nccc(-c5cccnc5)n4)c3)cc(C(F)(F)F)c2)cn1 [Nilotinib] + O=C(c1cc(Cc2n[nH]c(=O)c3ccccc23)ccc1F)N1CCN(C(=O)C2CC2)CC1 [Olaparib] (partner 8 µM) and report it.
0.673

----------
- Tested on: NCI-H3122
- Protocol Notes: relative viability (nuclei count vs DMSO), 5 days (fraction); higher = more cells survive
- Particulars: first compound 0.8 µM
Reported Endpoint: relative viability
Lab note: record the figure alone, no unit after it.

Consider the reported relative viability for these molecules:
INSERT INTO measurements (molecule, reported_value) VALUES
  ('Nc1cccc2c1CN(C1CCC(=O)NC1=O)C2=O (centres undefined) [Lenalidomide] + Nc1nc2[nH]cc(CCc3ccc(C(=O)N[C@@H](CCC(=O)O)C(=O)O)cc3)c2c(=O)[nH]1 [Pemetrexed] (partner 0.2 µM)', 0.202),
  ('Nc1cccc2c1CN(C1CCC(=O)NC1=O)C2=O (centres undefined) [Lenalidomide] + N=C(N)NC(=N)NCCc1ccccc1 [Phenformin] (partner 250 µM)', 0.387),
  ('Nc1cccc2c1CN(C1CCC(=O)NC1=O)C2=O (centres undefined) [Lenalidomide] + CC(C)C[C@H](NC(=O)[C@H](Cc1ccccc1)NC(=O)c1cnccn1)B(O)O [Bortezomib] (partner 0.002 µM)', 1.05);

Moving on to the next molecule.
Provide relative viability, recorded with NCI-H3122, of Nc1cccc2c1CN(C1CCC(=O)NC1=O)C2=O (centres undefined) [Lenalidomide] + CC(=O)c1c(C)c2cnc(Nc3ccc(N4CCNCC4)cn3)nc2n(C2CCCC2)c1=O [Palbociclib] (partner 0.5 µM)
0.213
